Would you kindly list Km for each of these compounds?
# Assay Method Text: Estimation of Km by the substrate depletion method
# Assay type: in vitro ADME
# Measurement Conditions: human, pH 7.4

Q: Recorded Km for `CCNc1nc2c(c(C(N)=O)n1)CN(C(=O)CCc1ccc(OC(F)(F)F)cc1)CC2` , please?
Ans: > 5 µM

Q: Return reported Km; argument: `COc1cccc(-n2nnc(C3CC3)c2C(=O)N(C)c2ccc(C#N)cc2)c1`
Ans: > 5 µM
